Quick reference: MIC of the listed items.
Test system: Escherichia coli
Assay: Antimicrobial activity against beta-lactamase CTX-M-15-producing fluoroquinolone-resistant Escherichia coli FMV5825 expressing qnrB2 and aac(6')-Ib-cr and harboring gyrA Ser83Ile and Asp87Asn mutant gene and ParC Ser80Ile and Glu84Val mutant gene obtained from dog with urinary tract infection by broth microdilution method
Assay type: functional
Details: FMV5825, Urine

compound: C[C@@H](O)[C@H]1C(=O)N2C(C(=O)O)=C(SCCNC=N)C[C@H]12 [IMIPENEM ANHYDROUS]
MIC: ≤ 1 µg/mL
//
compound: CO/N=C(\C(=O)N[C@@H]1C(=O)N2C(C(=O)[O-])=C(C[N+]3(C)CCCC3)CS[C@H]12)c1csc(N)n1
MIC: > 16 µg/mL
//
compound: CO/N=C(\C(=O)N[C@@H]1C(=O)N2C(C(=O)O)=C(COC(C)=O)CS[C@H]12)c1csc(N)n1
MIC: > 64 µg/mL
//
compound: CO[C@@]1(NC(=O)Cc2cccs2)C(=O)N2C(C(=O)O)=C(COC(N)=O)CS[C@@H]21
MIC: ≤ 4 µg/mL
//
compound: CO/N=C(\C(=O)N[C@@H]1C(=O)N2C(C(=O)O)=C(COC(N)=O)CS[C@H]12)c1ccco1
MIC: > 16 µg/mL
//
compound: CCn1cc(C(=O)O)c(=O)c2ccc(C)nc21
MIC: > 256 µg/mL
//
compound: CCn1cc(C(=O)O)c(=O)c2cc(F)c(N3CCNCC3)cc21
MIC: 256 µg/mL
//
compound: C[C@@H](O)[C@H]1C(=O)N2C(C(=O)O)=C(S[C@@H]3CN[C@H](C(=O)Nc4cccc(C(=O)O)c4)C3)[C@H](C)[C@H]12
MIC: ≤ 0.5 µg/mL

###

# key: entry, value: MIC
Test system: Escherichia coli
Assay: Antimicrobial activity against beta-lactamase CTX-M-15-producing fluoroquinolone-resistant Escherichia coli FMV5825 expressing qnrB2 and aac(6')-Ib-cr and harboring gyrA Ser83Ile and Asp87Asn mutant gene and ParC Ser80Ile and Glu84Val mutant gene obtained from dog with urinary tract infection by broth microdilution method
Format: functional
Details: FMV5825, Urine

compound: O=C(O)c1cn(C2CC2)c2cc(N3CCNCC3)c(F)cc2c1=O
MIC: 128 µg/mL

compound: C[C@H]1COc2c(N3CCN(C)CC3)c(F)cc3c(=O)c(C(=O)O)cn1c23.C[C@H]1COc2c(N3CCN(C)CC3)c(F)cc3c(=O)c(C(=O)O)cn1c23.O
MIC: 32 µg/mL

compound: C[C@H]1[C@H](NC(=O)/C(=N\OC(C)(C)C(=O)O)c2csc(N)n2)C(=O)N1S(=O)(=O)O
MIC: > 16 µg/mL

compound: CC1(C)S[C@@H]2[C@H](NC(=O)[C@H](N)c3ccccc3)C(=O)N2[C@H]1C(=O)O
MIC: > 16 µg/mL

compound: NC[C@H]1O[C@H](O[C@H]2[C@H](O)[C@@H](O[C@H]3O[C@H](CO)[C@@H](O)[C@H](N)[C@H]3O)[C@H](N)C[C@@H]2N)[C@H](N)C[C@@H]1O
MIC: > 8 µg/mL

compound: CCN1CCN(C(=O)N[C@@H](C(=O)N[C@@H]2C(=O)N3[C@@H]2SC(C)(C)[C@@H]3C(=O)O)c2ccccc2)C(=O)C1=O
MIC: > 64 µg/mL

compound: CO[C@@]1(NC(=O)C2SC(=C(C(N)=O)C(=O)O)S2)C(=O)N2C(C(=O)O)=C(CSc3nnnn3C)CS[C@@H]21 (stereo not given in full)
MIC: ≤ 16 µg/mL

compound: CC(C)(O/N=C(\C(=O)N[C@@H]1C(=O)N2C(C(=O)[O-])=C(C[n+]3ccccc3)CS[C@H]12)c1csc(N)n1)C(=O)O
MIC: 128 µg/mL

compound: CC1(C)S[C@@H]2[C@H](NC(=O)[C@H](C(=O)O)c3ccsc3)C(=O)N2[C@H]1C(=O)O
MIC: > 64 µg/mL

compound: COCC1=C(C(=O)O)N2C(=O)[C@@H](NC(=O)/C(=N\OC)c3csc(N)n3)[C@H]2SC1
MIC: > 4 µg/mL
